- system-name: human A1 receptors (Homo sapiens)
- Construct: expressed in transfected cells
- Sequence (P30542 whole entry): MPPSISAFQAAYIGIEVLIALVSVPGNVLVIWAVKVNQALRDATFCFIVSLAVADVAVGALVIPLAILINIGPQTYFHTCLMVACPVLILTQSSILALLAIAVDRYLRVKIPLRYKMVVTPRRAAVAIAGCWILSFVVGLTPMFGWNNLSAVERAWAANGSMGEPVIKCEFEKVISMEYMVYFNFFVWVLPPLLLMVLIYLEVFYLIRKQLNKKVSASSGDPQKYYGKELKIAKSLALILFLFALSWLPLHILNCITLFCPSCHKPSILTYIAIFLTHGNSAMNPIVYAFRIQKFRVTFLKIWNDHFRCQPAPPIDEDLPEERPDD
- protocol-text: Binding at human A1 adenosine receptor ([3H]R-PIA, CHO cell membranes)
- details: mean ± s.e.m., n = 3-5, read-out: Ki(hA1AR)
Examples of compounds with documented pKi follow.
The quantity pKi is defined as the negative base-10 logarithm of the molar concentration.

Consider the worked cases shown below.
compound | pKi
CNC(=O)[C@@]12C[C@@H]1[C@@H](n1cnc3c(NCc4cccc(I)c4)nc(Cl)nc31)[C@H](O)[C@@H]2O [Compound 4, reference compound] | 7.19
CNC(=O)[C@@]12C[C@@H]1[C@@H](n1cnc3c(NCc4cccc(I)c4)ncnc31)[C@H](O)[C@@H]2O [Compound 16] | 6.15

Consider now this further compound.
pKi lookup needed for CNC(=O)C12CC1C(n1cnc3c(NCc4cc(Cl)ccc4OCc4ccccc4)nc(Cl)nc31)C(O)C2O (stereo not drawn) [Compound 24] , thanks.
5.92

====

Reported Ki values for the following compounds.
- system-name: rat A3 adenosine receptor (Rattus norvegicus)
- Construct: expressed in transfected cells; host or cells: CHO cells
- Sequence (P28647 whole entry): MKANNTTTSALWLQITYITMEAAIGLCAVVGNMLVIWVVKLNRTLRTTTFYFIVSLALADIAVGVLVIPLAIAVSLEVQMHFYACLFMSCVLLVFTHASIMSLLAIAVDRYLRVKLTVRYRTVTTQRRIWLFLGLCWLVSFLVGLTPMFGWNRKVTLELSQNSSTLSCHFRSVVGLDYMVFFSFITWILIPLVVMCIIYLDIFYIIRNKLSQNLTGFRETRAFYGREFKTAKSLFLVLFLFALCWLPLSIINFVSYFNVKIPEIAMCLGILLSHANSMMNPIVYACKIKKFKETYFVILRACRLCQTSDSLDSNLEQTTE
- protocol-text: Binding at rat A3 adenosine receptor ([125I]I-AB-MECA, CHO cell membranes)
- details: rat A3 AR in CHO cells; unit nM printed in b194 only; read-out: Ki(rA3AR)
# output: bare number, implied unit nM

Before answering, review these 6 worked examples.
compound | experimental-value
CNC(=O)C12CC1C(n1cnc3c(NCc4cc(OC)ccc4OC)nc(Cl)nc31)C(O)C2O (stereo not shown) | 0.87
CNC(=O)[C@@]12C[C@@H]1[C@H](n1cnc3c(NCc4cccc(Cl)c4)nc(Cl)nc31)[C@H](O)[C@@H]2O | 1
CNC(=O)C12CC1C(n1cnc3c(NCc4cccc(Br)c4)nc(Cl)nc31)C(O)C2O (stereo not shown) | 0.76
CNC(=O)[C@@]12C[C@@H]1[C@@H](n1cnc3c(NC)nc(Cl)nc31)[C@H](O)[C@@H]2O | 160
CNC(=O)[C@@]12C[C@@H]1[C@@H](n1cnc3c(NCC(c4ccccc4)c4ccccc4)nc(Cl)nc31)[C@H](O)[C@@H]2O | 10
CNC(=O)[C@@]12C[C@@H]1[C@@H](n1cnc3c(NCc4cccc(I)c4)nc(Cl)nc31)[C@H](O)[C@@H]2O | 1.1

Next up:
Which Ki is reported for this compound? CNC(=O)C12CC1C(n1cnc3c(NCc4cc(Cl)ccc4OCc4ccccc4)nc(Cl)nc31)C(O)C2O (stereo not shown)
11

====

- system-name: human A2A receptors (Homo sapiens, UniProt P29274)
- Construct: expressed in transfected cells
- Sequence (P29274 whole entry): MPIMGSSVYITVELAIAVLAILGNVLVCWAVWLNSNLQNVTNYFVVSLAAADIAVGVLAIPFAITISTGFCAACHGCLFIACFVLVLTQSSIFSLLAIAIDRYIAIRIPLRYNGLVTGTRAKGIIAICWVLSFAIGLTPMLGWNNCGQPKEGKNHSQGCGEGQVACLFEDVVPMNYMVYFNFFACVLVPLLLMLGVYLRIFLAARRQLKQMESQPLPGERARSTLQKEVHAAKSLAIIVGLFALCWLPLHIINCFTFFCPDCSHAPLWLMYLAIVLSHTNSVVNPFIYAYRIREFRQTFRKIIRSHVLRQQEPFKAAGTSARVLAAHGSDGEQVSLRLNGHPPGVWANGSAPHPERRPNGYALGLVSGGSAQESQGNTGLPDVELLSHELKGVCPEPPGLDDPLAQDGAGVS
- protocol-text: Binding at human A2A adenosine receptor ([3H]CGS21680, HEK-293 cell membranes)
- details: [3H]CGS 21680; mean ± s.e.m., n = 3-5; read-out: Ki(hA2AAR)
Define the label as Met when Ki is strictly less than 1 µM and as Not met in all remaining cases.

# example entries with known answers
compound | class-assignment
CNC(=O)[C@@]12C[C@@H]1[C@H](n1cnc3c(NCc4cccc(Cl)c4)nc(Cl)nc31)[C@H](O)[C@@H]2O | Not met
CNC(=O)C12CC1C(n1cnc3c(NCc4cc(Cl)ccc4OCc4ccccc4)nc(Cl)nc31)C(O)C2O (stereo not shown) | Met
CNC(=O)[C@@]12C[C@@H]1[C@@H](n1cnc3c(NCc4ccc(N)c(I)c4)nc(Cl)nc31)[C@H](O)[C@@H]2O [Compound 31b] | Not met
CNC(=O)C12CC1C(n1cnc3c(NCc4cc(Cl)ccc4OCC(N)=O)nc(Cl)nc31)C(O)C2O (stereo not shown) | Met
CNC(=O)[C@@]12C[C@@H]1[C@H](n1cnc3c(NCc4cc(Cl)ccc4Cl)nc(Cl)nc31)[C@H](O)[C@@H]2O | Not met
CNC(=O)C12CC1C(n1cnc3c(NCc4cc(Cl)ccc4OC)nc(Cl)nc31)C(O)C2O (stereo not shown) | Not met

Consider the record given below.
Criterion: Ki strictly below 1 µM. Is it met by CNC(=O)C12CC1C(n1cnc3c(NCc4ccccc4C)nc(Cl)nc31)C(O)C2O (stereo not shown) ?
Not met

====

- system-name: human A3 adenosine receptor (Homo sapiens, UniProt P0DMS8)
- Sequence (P0DMS8 1-318): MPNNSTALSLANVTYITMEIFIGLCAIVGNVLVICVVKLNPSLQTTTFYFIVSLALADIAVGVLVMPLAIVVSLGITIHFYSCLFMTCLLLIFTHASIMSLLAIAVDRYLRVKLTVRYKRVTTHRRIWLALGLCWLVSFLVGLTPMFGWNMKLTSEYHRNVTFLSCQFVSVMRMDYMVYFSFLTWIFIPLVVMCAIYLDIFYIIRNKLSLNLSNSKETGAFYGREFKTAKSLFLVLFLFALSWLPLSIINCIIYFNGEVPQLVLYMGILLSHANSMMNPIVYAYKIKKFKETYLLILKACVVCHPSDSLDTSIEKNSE
- protocol-text: Cyclic AMP accumulation assay (inhibition of forskolin-stimulated cAMP), CHO cells expressing human A3 adenosine receptor
readout-label: pEC50
By convention, pEC50 is the negative base-10 log of a molar concentration.

Which pEC50 is listed for CNC(=O)C12CC1C(n1cnc3c(NC4CCCC4)nc(Cl)nc31)C(O)C2O (stereo not shown) ?
8.55

====

Reported pKi is given for each of the following molecules.
- system-name: human A2A receptors (Homo sapiens, UniProt P29274)
- Construct: expressed in transfected cells
- protocol-text: Binding at human A2A adenosine receptor ([3H]CGS21680, HEK-293 cell membranes)
- details: [3H]CGS 21680; mean ± s.e.m., n = 3-5; read-out: Ki(hA2AAR)
Answer as the number alone; pKi is minus log10 of concentration in mol/L.

molecule | pKi
CNC(=O)[C@@]12C[C@@H]1[C@@H](n1cnc3c(NCc4cccc(I)c4)nc(Cl)nc31)[C@H](O)[C@@H]2O [Compound 4, reference compound] | 5.80
CNC(=O)[C@@]12C[C@@H]1[C@@H](n1cnc3c(NCc4cccc(I)c4)ncnc31)[C@H](O)[C@@H]2O | 5.21
CNC(=O)C12CC1C(n1cnc3c(NCc4cc(I)ccc4OC)nc(Cl)nc31)C(O)C2O (stereo not shown) | 6.37

Can you look up the measured pKi of CNC(=O)[C@@]12C[C@@H]1[C@@H](n1cnc3c(N[C@@H]4C[C@H]4c4ccccc4)nc(Cl)nc31)[C@H](O)[C@@H]2O (relative stereo) for me?
5.32

Then this molecule: CNC(=O)C12CC1C(n1cnc3c(NCc4cccc(C)c4)nc(Cl)nc31)C(O)C2O (stereo not shown)
5.43

Also, CNC(=O)C12CC1C(n1cnc3c(NCc4cccc(Br)c4)nc(Cl)nc31)C(O)C2O (stereo not shown) please.
5.89

For CNC(=O)C12CC1C(n1cnc3c(NCc4cc(I)ccc4Cl)nc(Cl)nc31)C(O)C2O (stereo not shown) then?
6.32

Next up: OC[C@H]1O[C@@H](n2cnc3c(NCc4cccc(Cl)c4)ncnc32)[C@H](O)[C@@H]1O [Compound 8, reference compound]
5.85

Would you kindly repeat that for CNC(=O)[C@@]12C[C@@H]1[C@@H](n1cnc3c(NCC(c4ccccc4)c4ccccc4)nc(Cl)nc31)[C@H](O)[C@@H]2O ?
5.80

Then this molecule: CNC(=O)C12CC1C(n1cnc3c(NCc4cccc(F)c4)nc(Cl)nc31)C(O)C2O (stereo not shown)
5.29

====

- system-name: human A2B adenosine receptor (hA2BAR) (Homo sapiens)
- Sequence (P29275 whole entry): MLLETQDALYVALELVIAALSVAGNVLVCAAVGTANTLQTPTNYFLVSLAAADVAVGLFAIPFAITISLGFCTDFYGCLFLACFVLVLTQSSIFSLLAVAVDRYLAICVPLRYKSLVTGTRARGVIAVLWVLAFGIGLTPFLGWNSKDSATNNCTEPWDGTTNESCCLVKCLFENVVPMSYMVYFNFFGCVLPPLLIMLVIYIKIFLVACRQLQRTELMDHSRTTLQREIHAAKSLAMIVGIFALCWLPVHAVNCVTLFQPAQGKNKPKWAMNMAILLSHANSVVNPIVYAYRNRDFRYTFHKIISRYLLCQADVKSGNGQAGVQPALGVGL
- protocol-text: Activation of human A2B adenosine receptor at 10 μM
- Assay type: cell-based
- details: CHO cells
If the reported % Activation (hA2BAR) at 10 μM equals or exceeds 30%, assign 1. If not, assign 0.

Past entries and their recorded results:
compound | class-assignment
CNC(=O)C12CC1C(n1cnc3c(NCc4cc(OC)ccc4OC)nc(Cl)nc31)C(O)C2O (centres unmarked) | 0
CNC(=O)C12CC1C(n1cnc3c(NCc4cc(I)ccc4OC)nc(Cl)nc31)C(O)C2O (centres unmarked) | 1
CNC(=O)C12CC1C(n1cnc3c(NCc4cc(Cl)ccc4OCc4ccccc4)nc(Cl)nc31)C(O)C2O (centres unmarked) | 1
CNC(=O)C12CC1C(n1cnc3c(NCc4cc(C#CCO)ccc4Cl)nc(Cl)nc31)C(O)C2O (centres unmarked) | 0
CNC(=O)C12CC1C(n1cnc3c(NCc4cccc(F)c4)nc(Cl)nc31)C(O)C2O (centres unmarked) | 0

Then there is this compound:
Please check the record CNC(=O)C12CC1C(n1cnc3c(NCc4cc(I)ccc4Cl)nc(Cl)nc31)C(O)C2O (centres unmarked) and state if its % Activation (hA2BAR) at 10 μM is at or above 30%.
1

====

- system-name: human A2A receptors (Homo sapiens)
- Construct: expressed in transfected cells
- protocol-text: Binding at human A2A adenosine receptor ([3H]CGS21680, HEK-293 cell membranes)
- details: 10 μM; [3H]CGS 21680
Kindly return condition met if reported % displ. at 10 μM (hA2AAR) is no lower than 30%; return condition not met if it is lower.

molecule | class-assignment
CCOC(=O)[C@@]12C[C@@H]1[C@H](n1cnc3c(NCc4cccc(Cl)c4)nc(I)nc31)[C@H](O)[C@@H]2O | condition met
CNC(=O)C12CC1C(n1cnc3c(NCc4cc(C#CCO)ccc4Cl)nc(Cl)nc31)C(O)C2O (stereo not drawn) | condition not met
CNC(=O)C12CC1C(n1cnc3c(NCc4cccnc4)nc(Cl)nc31)C(O)C2O (stereo not drawn) | condition met
CNC(=O)C12CC1C(n1cnc3c(NCc4cccc(C#CCO)c4)nc(Cl)nc31)C(O)C2O (stereo not drawn) | condition met
CNC(=O)C12CC1C(n1cnc3c(NCc4cccc(Cl)c4)nc(SC)nc31)C(O)C2O (stereo not drawn) | condition met
CNC(=O)C12CC1C(n1cnc3c(NCc4cc(OC)ccc4OC)nc(Cl)nc31)C(O)C2O (stereo not drawn) | condition met

Is the recorded value of % displ. at 10 μM (hA2AAR) equal to or greater than 30% for this molecule? CNC(=O)[C@@]12C[C@@H]1[C@H](n1cnc3c(NC)nc(N)nc31)[C@H](O)[C@@H]2O
condition not met

Then this molecule: CNC(=O)[C@@]12C[C@@H]1[C@@H](n1cnc3c(NC)nc(Cl)nc31)[C@H](O)[C@@H]2O
condition not met

Try the molecule CNC(=O)C12CC1C(n1cnc3c(NCc4ccc(N)cc4)nc(Cl)nc31)C(O)C2O (stereo not drawn) [Compound 31a]
condition not met
